IC50 for assorted compounds
- System: A549
- EXPERIMENT SUMMARY: In vitro tumor cell proliferation, A549
- Assay type: cell-based, human
- STUDY CONDITIONS: A549; many values given with an undefined *; trihydrochloride; read-out: In vitro Tumor Cell Proliferation (IC50, μM) Lung A549
Counter-ions that a name gives are not always drawn.
Answer format: value, then unit.

| COMPOUND | EXPERIMENTAL READOUT | OBSERVED VALUE |
| --- | --- | --- |
| N[C@H]1CC[C@H](Nc2nc(NCCNc3ccccc3)c3ncn(C4CCCC4)c3n2)CC1 [Example 31, trihydrochloride] | IC50 | 2.1 µM |
| N[C@H]1CC[C@H](Nc2nc(NC3CCN(Cc4cccc(F)c4)CC3)c3ncn(C4CCCC4)c3n2)CC1 [Example 147-j, trihydrochloride] | IC50 | 0.14 µM |
| N[C@H]1CC[C@H](Nc2nc(NCC3CCN(Cc4ccccc4)CC3)c3ncn(C4CCCC4)c3n2)CC1 [Example 147-ac, trihydrochloride] | IC50 | 0.62 µM |
| N[C@H]1CC[C@H](Nc2nc(NC3CCN(Cc4ccc(Cl)c(Cl)c4)CC3)c3ncn(C4CCCC4)c3n2)CC1 [Example 147-o, trihydrochloride] | IC50 | 0.44 µM |
| N[C@H]1CC[C@H](Nc2nc(NC3CCN(Cc4ccccc4OC(F)(F)F)CC3)c3ncn(C4CCCC4)c3n2)CC1 [Example 147-ab, trihydrochloride] | IC50 | 0.39 µM |

Input COc1cc(CN2CCC(Nc3nc(N[C@H]4CC[C@H](N)CC4)nc4c3ncn4C3CCCC3)CC2)cc(OC)c1 [Example 147-c, trihydrochloride] . Output IC50: 0.24 µM

Input N[C@H]1CC[C@H](Nc2nc(NC3CCN(Cc4ccc(F)c(F)c4)CC3)c3ncn(C4CCCC4)c3n2)CC1 [Example 147-u, trihydrochloride] . Output IC50: 0.19 µM

Input N[C@H]1CC[C@H](Nc2nc(NC3CCN(Cc4cc(F)cc(F)c4)CC3)c3ncn(C4CCCC4)c3n2)CC1 [Example 147-g, trihydrochloride] . Output IC50: 0.14 µM

Input N[C@H]1CC[C@H](Nc2nc(NC3CCN(Cc4cccc(Oc5ccccc5)c4)CC3)c3ncn(C4CCCC4)c3n2)CC1 [Example 147-ad, trihydrochloride] . Output IC50: 0.43 µM

Input N[C@H]1CC[C@H](Nc2nc(NC3CCN(Cc4ccccc4F)CC3)c3ncn(C4CCCC4)c3n2)CC1 [Example 147-k, trihydrochloride] . Output IC50: 0.16 µM

Input N[C@H]1CC[C@H](Nc2nc(NC3CCN(CC4CCCCC4)CC3)c3ncn(C4CCCC4)c3n2)CC1 [Example 147-s, trihydrochloride] . Output IC50: 0.2 µM

Input N[C@H]1CC[C@H](Nc2nc(NC3CCN(Cc4ccc(F)cc4F)CC3)c3ncn(C4CCCC4)c3n2)CC1 [Example 147-h, trihydrochloride] . Output IC50: 0.16 µM

Input N[C@H]1CC[C@H](Nc2nc(NC3CCN(Cc4cccc(F)c4F)CC3)c3ncn(C4CCCC4)c3n2)CC1 [Example 147-e, trihydrochloride] . Output IC50: 0.3 µM

Input N[C@H]1CC[C@H](Nc2nc(NC3CCN(Cc4ccccc4C(F)(F)F)CC3)c3ncn(C4CCCC4)c3n2)CC1 [Example 147-b, trihydrochloride] . Output IC50: 0.4 µM

Input N[C@H]1CC[C@H](Nc2nc(NC3CCN(Cc4ccc5ccccc5c4)CC3)c3ncn(C4CCCC4)c3n2)CC1 [Example 147-p, trihydrochloride] . Output IC50: 0.34 µM

Where do these numbers come from? They come from patent US6479487B1.
